Tested system: human TLR7 (Homo sapiens (Human))
Test protocol: Test for evaluating the inhibition of the activation of human TLR7 (SEAP reporter, TLR7/NF-κB/SEAPorter HEK293 cell)
Condition details: R-848 200 nmol/L, SEAP reporter
Measured attribute: pIC50
Here pIC50 is given on a logarithmic scale as minus log10 of the concentration in mol/L.

Please fill in: pIC50 reported for COc1nc(C)c2nc(-c3cccc(C#N)c3)n(Cc3ccc(C4CN5CCC4CC5)cc3F)c2n1 (stereo not shown) = 7.92

Please fill in: pIC50 reported for CCOc1nc(C)c2nc(-c3cncc(F)c3)n(Cc3cnn(CC4CNCCO4)c3)c2n1 (stereo not shown) [Example 425] = 7.03

Please fill in: pIC50 reported for CCOc1nc(C)c2nc(-c3cncc(F)c3)n(Cc3ccc(C4CN5CCC4CC5)cc3C#N)c2n1 (stereo not shown) = 6.57

Please fill in: pIC50 reported for CCOc1nc(C)c2nc(-c3cncc(F)c3)n(Cc3cnc(C4CN5CCC4CC5)cc3OC)c2n1 (stereo not shown) = 5.79

----------
Tested system: human TLR7 (Homo sapiens (Human))
Test protocol: Test for evaluating the inhibition of the activation of human TLR7 (SEAP reporter, TLR7/NF-κB/SEAPorter HEK293 cell)
Condition details: R-848 200 nmol/L, SEAP reporter
Measured attribute: IC50 (nM)
Field: numeric (nM). Do not append units.

Please fill in: IC50 reported for `COCCOc1nc(N)c2nc(-c3cncc(F)c3)n(Cc3ccc(CN(C)C)cc3)c2n1` = 2500

Please fill in: IC50 reported for `CCN1C[C@@H]2C[C@H]1CN2Cc1ccc(Cn2c(-c3cncc(F)c3)nc3c(N)nc(OC)nc32)cc1` = 170

Please fill in: IC50 reported for `CCOc1nc(N)c2nc(-c3cncc(F)c3)n(Cc3ccc([C@H]4CN5CCC4CC5)cc3)c2n1` = 11

Please fill in: IC50 reported for `COc1nc(C)c2nc(-c3cncc(F)c3)n(Cc3ccc(CN4CCC4)cc3F)c2n1` = 18

----------
Tested system: UniProt Q9NYK1
Test protocol: Test for evaluating the inhibition of the activation of human TLR7 (SEAP reporter, TLR7/NF-κB/SEAPorter HEK293 cell)
Condition details: R-848 200 nmol/L, SEAP reporter
For each of the molecules below, state its pIC50.
Here pIC50 is given on a logarithmic scale as minus log10 of the concentration in mol/L.

Please fill in: pIC50 reported for CCOc1nc(C)c2nc(-c3cncc(F)c3)n(Cc3ccc(Br)cc3OC)c2n1 [Example 325] = 5.82

Please fill in: pIC50 reported for COc1nc(C)c2nc(-c3cncc(F)c3)n(Cc3ccc(C4=CN5CCC4CC5)cn3)c2n1 [Example 353] = 6.30

Please fill in: pIC50 reported for CCN1C[C@@H]2C[C@H]1CN2Cc1ccc(Cn2c(-c3cncc(F)c3)nc3c(C)nc(OC)nc32)cc1 [Example 132] = 7.72

Please fill in: pIC50 reported for CCOc1nc(N)c2nc(-c3cncc(F)c3)n(Cc3cccnc3)c2n1 [Example 22] = 5.70

----------
Tested system: UniProt Q9NYK1
Test protocol: Test for evaluating the inhibition of the activation of human TLR7 (SEAP reporter, TLR7/NF-κB/SEAPorter HEK293 cell)
Condition details: R-848 200 nmol/L, SEAP reporter
Measured attribute: IC50 (µM)
Field: numeric (µM). Do not append units.

So the reported IC50 for `COc1nc(C)c2nc(-c3cncc(F)c3)n(Cc3ccc(CN4C[C@@H]5C[C@H]4CN5)cc3)c2n1` , on UniProt Q9NYK1, turned out to be 0.085

So the reported IC50 for CCOc1nc(C)c2nc(-c3cncc(F)c3)n(Cc3ccc(C4CN5CCC4CC5)cn3)c2n1 (stereo not shown) , on UniProt Q9NYK1, turned out to be 0.117

So the reported IC50 for `CCCCNc1nc(N)c2nc(-c3cncc(F)c3)n(Cc3ccc(CN(C)C)cc3)c2n1` , on UniProt Q9NYK1, turned out to be 13.6

So the reported IC50 for COc1nc(C)c2nc(-c3cncc(C#N)c3)n(Cc3ccc(C4CN5CCC4CC5)cc3F)c2n1 (stereo not shown) [Example 340] , on UniProt Q9NYK1, turned out to be 0.026

So the reported IC50 for `CCOc1nc(N)c2nc(-c3cncc(F)c3)n(Cc3ccc(CN(C)C)cc3)c2n1` , on UniProt Q9NYK1, turned out to be 0.54

So the reported IC50 for `CCOc1nc(C)c2nc(-c3cncc(F)c3)n(Cc3cnc(CC4CCNCC4)cc3OC)c2n1` , on UniProt Q9NYK1, turned out to be 0.549

So the reported IC50 for `CCCCOc1nc(C)c2nc(-c3cncc(F)c3)n(Cc3ccc(CO)cc3)c2n1` , on UniProt Q9NYK1, turned out to be 3.5

So the reported IC50 for `COc1nc(C)c2nc(-c3cncnc3)n(Cc3ccc([C@H]4CN5CCC4CC5)cc3F)c2n1` , on UniProt Q9NYK1, turned out to be 0.021

So the reported IC50 for `CCOc1nc(C)c2nc(-c3cncc(F)c3)n(Cc3cnn(CC4CCNCC4)c3)c2n1` , on UniProt Q9NYK1, turned out to be 0.21

So the reported IC50 for `COc1nc(C)c2nc(-c3cccnc3)n(Cc3ccc(CN4C[C@@H]5C[C@H]4CN5C)cc3F)c2n1` , on UniProt Q9NYK1, turned out to be 0.028

So the reported IC50 for `COc1nc(C)c2nc(-c3cncc(F)c3)n(Cc3ccc(O[C@H]4CCN(C)C4)cc3F)c2n1` , on UniProt Q9NYK1, turned out to be 0.016

So the reported IC50 for `CCOc1nc(N)c2nc(-c3cncc(F)c3)n(Cc3ccc(CN4CCC4)cc3)c2n1` , on UniProt Q9NYK1, turned out to be 0.096

So the reported IC50 for COc1nc(C)c2nc(-c3cncc(F)c3)n(Cc3cccc(C4CN5CCC4CC5)c3)c2n1 (stereo not shown) , on UniProt Q9NYK1, turned out to be 0.013

So the reported IC50 for `CCOc1nc(C)c2nc(-c3cncc(F)c3)n(Cc3cnn(CCN4CCOCC4)c3)c2n1` , on UniProt Q9NYK1, turned out to be 0.248

So the reported IC50 for `COc1ccc(Cn2c(-c3cncc(F)c3)nc3c(C)nc(OC)nc32)c(F)c1` , on UniProt Q9NYK1, turned out to be 3.41

So the reported IC50 for CCN1C2CCC1CC(Oc1ccc(Cn3c(-c4cncc(C#N)c4)nc4c(C)nc(OC)nc43)c(F)c1)C2 (stereo not shown) , on UniProt Q9NYK1, turned out to be 0.021

----------
Tested system: human TLR7 (Homo sapiens (Human), UniProt Q9NYK1)
Sequence (Q9NYK1 27-1049): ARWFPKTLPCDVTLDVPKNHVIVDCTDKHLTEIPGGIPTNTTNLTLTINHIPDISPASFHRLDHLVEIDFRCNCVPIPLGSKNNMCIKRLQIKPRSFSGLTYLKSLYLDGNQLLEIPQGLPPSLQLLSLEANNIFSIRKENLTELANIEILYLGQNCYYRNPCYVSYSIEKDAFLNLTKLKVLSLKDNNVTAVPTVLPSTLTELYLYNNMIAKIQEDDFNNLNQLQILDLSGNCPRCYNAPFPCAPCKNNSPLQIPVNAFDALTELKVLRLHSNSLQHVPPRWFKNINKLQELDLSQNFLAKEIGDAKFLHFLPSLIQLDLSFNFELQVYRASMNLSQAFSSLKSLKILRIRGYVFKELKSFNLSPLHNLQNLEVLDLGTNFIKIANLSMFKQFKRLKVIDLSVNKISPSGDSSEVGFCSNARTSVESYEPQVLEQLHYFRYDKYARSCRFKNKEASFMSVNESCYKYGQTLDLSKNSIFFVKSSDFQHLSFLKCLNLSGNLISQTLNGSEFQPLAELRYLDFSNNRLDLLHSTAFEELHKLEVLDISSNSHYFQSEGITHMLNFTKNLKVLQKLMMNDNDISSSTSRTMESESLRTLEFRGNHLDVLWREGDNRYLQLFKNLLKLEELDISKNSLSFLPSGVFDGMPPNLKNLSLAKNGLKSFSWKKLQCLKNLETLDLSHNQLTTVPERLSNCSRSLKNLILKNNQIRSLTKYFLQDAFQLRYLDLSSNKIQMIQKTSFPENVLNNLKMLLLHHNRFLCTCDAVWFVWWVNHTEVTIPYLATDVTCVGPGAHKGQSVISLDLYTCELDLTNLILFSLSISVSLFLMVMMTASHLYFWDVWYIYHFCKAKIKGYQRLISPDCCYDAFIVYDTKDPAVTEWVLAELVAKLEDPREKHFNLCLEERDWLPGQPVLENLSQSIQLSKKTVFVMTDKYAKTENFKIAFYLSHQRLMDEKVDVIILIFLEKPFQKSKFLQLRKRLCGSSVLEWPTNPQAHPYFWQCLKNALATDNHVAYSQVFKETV
Test protocol: Test for evaluating the inhibition of the activation of human TLR7 (SEAP reporter, TLR7/NF-κB/SEAPorter HEK293 cell)
Condition details: R-848 200 nmol/L, SEAP reporter
Measured attribute: pIC50
Here pIC50 is given on a logarithmic scale as minus log10 of the concentration in mol/L.

Please fill in: pIC50 reported for `CCN1CCC(c2ccc(Cn3c(-c4cncc(C#N)c4)nc4c(C)nc(OC)nc43)c(F)c2)CC1` = 7.52

Please fill in: pIC50 reported for `COc1nc(C)c2nc(-c3cncc(F)c3)n(Cc3ccc(O[C@@H]4CN5CCC4CC5)cc3F)c2n1` = 8.30

Please fill in: pIC50 reported for COc1cncc(-c2nc3c(C)nc(OC)nc3n2Cc2ccc(C3CN4CCC3CC4)cc2F)c1 (centres unmarked) = 7.17

Please fill in: pIC50 reported for COc1nc(C)c2nc(-c3cncc(F)c3)n(Cc3ccc(C4CN5CCC4CC5)cn3)c2n1 (centres unmarked) = 6.58

Please fill in: pIC50 reported for `CCOc1nc(C)c2nc(-c3cncc(F)c3)n(Cc3cnc(CC4CCN(C)CC4)cc3OC)c2n1` = 6.85

Please fill in: pIC50 reported for `CCOc1nc(C)c2nc(-c3cncc(F)c3)n(Cc3ccc(Br)cc3C#N)c2n1` = 6.80

Please fill in: pIC50 reported for `CCOc1nc(N)c2nc(-c3cncc(F)c3)n(Cc3ccc(CN4CCOCC4)cc3)c2n1` = 7.00

Please fill in: pIC50 reported for CCOc1nc(C)c2nc(-c3cncc(F)c3)n(Cc3ccc(C4CCN(C)C4)cc3)c2n1 (centres unmarked) = 7.31

----------
Tested system: human TLR7 (Homo sapiens (Human), UniProt Q9NYK1)
Test protocol: Test for evaluating the inhibition of the activation of human TLR7 (SEAP reporter, TLR7/NF-κB/SEAPorter HEK293 cell)
Condition details: R-848 200 nmol/L, SEAP reporter
Measured attribute: IC50 (nM)
Field: numeric (nM). Do not append units.

So the reported IC50 for `COc1nc(C)c2nc(-c3cncc(F)c3)n(Cc3cnn(CCCN(C)C)c3)c2n1` , on human TLR7 (Homo sapiens (Human), UniProt Q9NYK1), turned out to be 180

So the reported IC50 for `CCOc1nc(C)c2nc(-c3cncc(F)c3)n(Cc3ccc(CN4CCN5CC[C@@H]4C5)cc3)c2n1` , on human TLR7 (Homo sapiens (Human), UniProt Q9NYK1), turned out to be 26

So the reported IC50 for CCOc1nc(C)c2nc(-c3cncc(F)c3)n(Cc3cnc(C4CN5CCC4CC5)cc3C)c2n1 (stereo not shown) , on human TLR7 (Homo sapiens (Human), UniProt Q9NYK1), turned out to be 213

So the reported IC50 for `CCOc1nc(N)c2nc(-c3cncc(F)c3)n(Cc3ccc(CN4C[C@@H]5C[C@H]4CN5C(C)=O)cc3)c2n1` , on human TLR7 (Homo sapiens (Human), UniProt Q9NYK1), turned out to be 150

So the reported IC50 for `CCCCOc1nc(N)c2nc(-c3ccccn3)n(Cc3ccccc3)c2n1` , on human TLR7 (Homo sapiens (Human), UniProt Q9NYK1), turned out to be 18100

So the reported IC50 for `CCOc1nc(C)c2nc(-c3cncc(F)c3)n(Cc3ccc(CN4CCCC4)cc3)c2n1` , on human TLR7 (Homo sapiens (Human), UniProt Q9NYK1), turned out to be 102

So the reported IC50 for `COc1nc(C)c2nc(-c3cncc(C#N)c3)n(Cc3ccc(O[C@@H]4CN5CCC4CC5)cc3F)c2n1` , on human TLR7 (Homo sapiens (Human), UniProt Q9NYK1), turned out to be 13

So the reported IC50 for COc1nc(C)c2nc(-c3cncc(F)c3)n(Cc3ccc(C4CCNC4)cc3F)c2n1 (stereo not shown) , on human TLR7 (Homo sapiens (Human), UniProt Q9NYK1), turned out to be 18

So the reported IC50 for `CCOc1nc(N)c2nc(-c3cncc(F)c3)n(Cc3ccc(-c4cncc(F)c4)cc3)c2n1` , on human TLR7 (Homo sapiens (Human), UniProt Q9NYK1), turned out to be 950

So the reported IC50 for `Cc1nc(N)c2nc(-c3cncc(F)c3)n(Cc3ccc(CN(C)C)cc3)c2n1` , on human TLR7 (Homo sapiens (Human), UniProt Q9NYK1), turned out to be 5000

So the reported IC50 for COc1nc(C)c2nc(-c3cncnc3)n(Cc3ccc(C4CN5CCC4CC5)cc3F)c2n1 (stereo not shown) , on human TLR7 (Homo sapiens (Human), UniProt Q9NYK1), turned out to be 19

So the reported IC50 for `COc1nc(C)c2nc(-c3cncc(F)c3)n(Cc3cc(Br)ccc3F)c2n1` , on human TLR7 (Homo sapiens (Human), UniProt Q9NYK1), turned out to be 389

So the reported IC50 for `CCOc1nc(C)c2nc(-c3cncc(F)c3)n(Cc3cnn(C4CCN(C)CC4)c3)c2n1` , on human TLR7 (Homo sapiens (Human), UniProt Q9NYK1), turned out to be 50

So the reported IC50 for `CCCCOc1nc(N)c2nc(-c3cncc(OC)c3)n(Cc3ccccc3)c2n1` , on human TLR7 (Homo sapiens (Human), UniProt Q9NYK1), turned out to be 800

So the reported IC50 for `CCOc1nc(C)c2nc(-c3cncc(F)c3)n(Cc3ccc(CN4C[C@@H]5C[C@H]4CN5)cc3)c2n1` , on human TLR7 (Homo sapiens (Human), UniProt Q9NYK1), turned out to be 33

So the reported IC50 for `CCOc1nc(N)c2nc(-c3cncc(F)c3)n(Cc3ccc(O[C@H]4CN5CCC4CC5)nc3)c2n1` , on human TLR7 (Homo sapiens (Human), UniProt Q9NYK1), turned out to be 140
